Listed sequences paired with reported melting temperature
test system: HeLa Kyoto; assay: melting temperature (median over replicates), in situ; higher = more thermally stable; conditions: cell cycle stage: G1/S;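 note: HeLa Kyoto cells synchronized by double thymidine or nocodazole block, proteins quantified by TMT10plex mass spectrometry, three independent biological replicates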
readoutType: melting temperature (°C)

[[record]]
residuestring = "MEKTELIQKAKLAEQAERYDDMATCMKAVTEQGAELSNEERNLLSVAYKNVVGGRRSAWRVISSIEQKTDTSDKKLQLIKDYREKVESELRSICTTVLELLDKYLIANATNPESKVFYLKMKGDYFRYLAEVACGDDRKQTIDNSQGAYQEAFDISKKEMQPTHPIRLGLALNFSVFYYEILNNPELACTLAKTAFDEAIAELDTLNEDSYKDSTLIMQLLRDNLTLWTSDSAGEECDAAEGAEN [YWHAQ]"
quantitativeresult = 51.4

[[record]]
residuestring = "MWVCSTLWRVRTPARQWRGLLPASGCHGPAASSYSASAEPARVRALVYGHHGDPAKVVELKNLELAAVRGSDVRVKMLAAPINPSDINMIQGNYGFLPELPAVGGNEGVAQVVAVGSNVTGLKPGDWVIPANAGLGTWRTEAVFSEEALIQVPSDIPLQSAATLGVNPCTAYRMLMDFEQLQPGDSVIQNASNSGVGQAVIQIAAALGLRTINVVRDRPDIQKLSDRLKSLGAEHVITEEELRRPEMKNFFKDMPQPRLALNCVGGKSSTELLRQLARGGTMVTYGGMAKQPVVASVSLLIFKDLKLRGFWLSQWKKDHSPDQFKELILTLCDLIRRGQLTAPACSQVPLQDYQSALEASMKPFISSKQILTM [MECR]"
quantitativeresult = 55

[[record]]
residuestring = "MSLFGTTSGFGTSGTSMFGSATTDNHNPMKDIEVTSSPDDSIGCLSFSPPTLPGNFLIAGSWANDVRCWEVQDSGQTIPKAQQMHTGPVLDVCWSDDGSKVFTASCDKTAKMWDLSSNQAIQIAQHDAPVKTIHWIKAPNYSCVMTGSWDKTLKFWDTRSSNPMMVLQLPERCYCADVIYPMAVVATAERGLIVYQLENQPSEFRRIESPLKHQHRCVAIFKDKQNKPTGFALGSIEGRVAIHYINPPNPAKDNFTFKCHRSNGTNTSAPQDIYAVNGIAFHPVHGTLATVGSDGRFSFWDKDARTKLKTSEQLDQPISACCFNHNGNIFAYASSYDWSKGHEFYNPQKKNYIFLRNAAEELKPRNKK [RAE1]"
quantitativeresult = 49.8

